System: Escherichia coli
Details: Concentration 20 uM; ASSAY_TEST Inhibition of Bacterial Growth; detection method Absorption (OD600); MEDIA CAMHB; plate type 384well; NBS; CORNING #3640; time 18 hr
Description: Antibacterial activity against Escherichia coli ATCC 25922 (CO-ADD:GN_001); MIC in CAMBH media using NBS plates, by OD(600)
Results with a measured potency or affinity are listed apart.
MEASURED_ENDPOINT: Inhibition (%)
Answers are plain numbers, in %.

Solved cases (5 shown):
Param request: Inhibition | system Escherichia coli | item `CC(=O)[C@@]1(O)CC[C@H]2[C@@H]3C[C@H](C)C4=CC(=O)CC[C@]4(C)[C@H]3CC[C@@]21C`
-5.84

Provide Inhibition, recorded with Escherichia coli, of CCN(CC)C(=O)[C@]1(c2ccccc2)C[C@@H]1CN.Cl [1R,2S-MILNACIPRAN HYDROCHLORIDE]
4.64

Please look at `C#C[C@]1(O)CC[C@H]2[C@@H]3CCC4=CC(=O)CC[C@@H]4[C@H]3CC[C@@]21CC` and tell me its recorded Inhibition on Escherichia coli.
3.88

For Escherichia coli, give the measured Inhibition of the entry COc1cc2nc(N3CCN(C(=O)C4COc5ccccc5O4)CC3)nc(N)c2cc1OC (stereo not drawn)
5.29

Tell me its Inhibition on Escherichia coli: COc1nc(C)nc(Cl)c1NC1=NCCN1.Cl [MOXONIDINE HYDROCHLORIDE]
3.63

Please state, for each entry, its recorded Inhibition.
1. O=C(O)c1cc(-c2ccc(F)cc2F)ccc1O
2. CN(C)CC[C@@H](c1ccc(Cl)cc1)c1ccccn1.O=C(O)/C=C\C(=O)O [DEXCHLORPHENIRAMINE MALEATE]
3. Nc1nc(=O)c2nc(CNc3ccc(C(=O)N[C@@H](CCC(=O)O)C(=O)O)cc3)cnc2[nH]1

6.27
6.96
-0.13
